- TARGET: T1, human complement C2 (human, UniProt P06681 21-752)
- T1 construct: Recombinant full-length human C2 with C-terminal 8x His tag, purified from Expi293F supernatant; also called human C2; huC2
- T1 sequence: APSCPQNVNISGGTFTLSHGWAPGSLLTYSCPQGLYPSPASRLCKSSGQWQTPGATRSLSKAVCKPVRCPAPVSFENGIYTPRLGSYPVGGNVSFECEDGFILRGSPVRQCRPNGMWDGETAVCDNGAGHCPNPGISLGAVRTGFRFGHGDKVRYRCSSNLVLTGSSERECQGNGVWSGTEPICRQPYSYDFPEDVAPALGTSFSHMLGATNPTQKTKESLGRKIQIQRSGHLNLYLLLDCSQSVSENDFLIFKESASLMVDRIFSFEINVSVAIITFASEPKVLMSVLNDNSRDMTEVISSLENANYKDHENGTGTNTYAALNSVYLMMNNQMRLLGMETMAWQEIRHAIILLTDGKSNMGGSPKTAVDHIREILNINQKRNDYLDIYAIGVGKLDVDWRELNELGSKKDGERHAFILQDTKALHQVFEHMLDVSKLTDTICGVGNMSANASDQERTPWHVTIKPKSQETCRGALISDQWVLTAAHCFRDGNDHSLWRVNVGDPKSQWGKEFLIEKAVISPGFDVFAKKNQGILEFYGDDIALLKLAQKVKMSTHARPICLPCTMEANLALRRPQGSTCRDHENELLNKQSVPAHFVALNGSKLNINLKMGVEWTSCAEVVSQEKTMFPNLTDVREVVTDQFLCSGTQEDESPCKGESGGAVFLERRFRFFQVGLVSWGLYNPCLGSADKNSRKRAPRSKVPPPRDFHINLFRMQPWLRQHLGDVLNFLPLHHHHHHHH
- MEASUREMENT NOTES: SPR, mAb captured, C2 analyte, MHAs buffer, pH 6.0, steady state
MEASURED PROPERTY: Kd (µM)
I only need the number, in µM, no unit after it.

# Kd lookup, item RF16-214G (antibody, V domains shown) VH: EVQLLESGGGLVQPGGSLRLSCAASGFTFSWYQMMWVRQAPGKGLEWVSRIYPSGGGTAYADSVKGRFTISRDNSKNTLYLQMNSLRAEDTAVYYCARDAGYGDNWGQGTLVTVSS VL: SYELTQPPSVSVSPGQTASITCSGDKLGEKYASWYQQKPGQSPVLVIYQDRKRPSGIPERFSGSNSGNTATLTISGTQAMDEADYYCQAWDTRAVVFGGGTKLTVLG 1.48

# Kd lookup, item RF16-242G (antibody, V domains shown, Germlined version of RF16-242) VH: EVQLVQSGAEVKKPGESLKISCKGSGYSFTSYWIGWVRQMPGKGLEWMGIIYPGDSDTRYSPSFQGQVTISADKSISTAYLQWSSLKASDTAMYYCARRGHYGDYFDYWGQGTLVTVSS VL: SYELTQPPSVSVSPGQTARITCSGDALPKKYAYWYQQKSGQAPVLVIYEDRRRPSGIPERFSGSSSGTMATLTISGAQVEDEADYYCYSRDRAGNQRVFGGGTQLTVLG 12

# Kd lookup, item RF16-242 (antibody, V domains shown) VH: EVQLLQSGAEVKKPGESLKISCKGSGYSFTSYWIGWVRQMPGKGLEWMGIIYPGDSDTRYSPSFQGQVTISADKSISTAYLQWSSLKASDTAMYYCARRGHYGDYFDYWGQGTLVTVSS VL: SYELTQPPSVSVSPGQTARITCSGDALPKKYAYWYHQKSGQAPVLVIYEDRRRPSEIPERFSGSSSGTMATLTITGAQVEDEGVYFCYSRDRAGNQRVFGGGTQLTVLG 11.6

# Kd lookup, item RF16-214 (antibody, V domains shown) VH: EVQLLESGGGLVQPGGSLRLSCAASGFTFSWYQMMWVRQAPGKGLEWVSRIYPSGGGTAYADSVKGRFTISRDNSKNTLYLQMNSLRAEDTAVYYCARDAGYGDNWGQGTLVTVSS VL: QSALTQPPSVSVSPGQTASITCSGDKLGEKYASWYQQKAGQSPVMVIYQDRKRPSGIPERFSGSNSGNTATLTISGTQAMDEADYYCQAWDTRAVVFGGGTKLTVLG 2.17
